Study target: HLA-A*02:01 (Homo sapiens, UniProt P04439, D140Y/D185E/D98H/E176V/E277Q/G131W/G231S/I119V/I121R/I166T/I218V/L300P/L318F/N151K/N90K/P208A/P217A/Q86G/Q94H/R138H/R169H/T345S)
Experiment notes: MHC binding assay (UV-ligand exchange, ELISA of exchange yield)
Measurement setup: binding to HLA-A*02:01, UV-ligand exchange
Parameter measured: Peptide exchange (MHC class I binding score, peptide exchange yield)

Substance	Observed result
218 (SALEELVNV; listed as Homo sapiens) [compound 218]	“++” (≥20% = ++)
462 (KLAKQPETV; listed as Homo sapiens) [compound 462]	“+++” (≥50 = +++)
503 (SLNHFTHSV; listed as Homo sapiens) [compound 503]	“+++” (≥50 = +++)
46 (ILTEENIHL; listed as Homo sapiens) [compound 46]	“+++” (≥50 = +++)
132 (LLVEQPPLAGV; listed as Homo sapiens) [compound 132]	“+++” (≥50 = +++)

Form field Peptide exchange (MHC class I binding score, peptide exchange yield), entry 185 (FLIDDKGYTL; listed as Homo sapiens) [compound 185] : “++” (≥20% = ++)

Measured Peptide exchange (MHC class I binding score, peptide exchange yield) of 152 (ILFEDIFDV; listed as Homo sapiens) [compound 152] : “+++” (≥50 = +++)

Per the record, 69 (FQLDPSSGVLVTV; listed as Homo sapiens) [compound 69] has Peptide exchange (MHC class I binding score, peptide exchange yield) of “+++” (≥50 = +++)

---

Study target: HLA-A*02:01 (Homo sapiens, UniProt P04439, D140Y/D185E/D98H/E176V/E277Q/G131W/G231S/I119V/I121R/I166T/I218V/L300P/L318F/N151K/N90K/P208A/P217A/Q86G/Q94H/R138H/R169H/T345S)
Experiment notes: MHC binding assay (UV-ligand exchange, ELISA of exchange yield)
Measurement setup: binding to HLA-A*02:01, UV-ligand exchange
Parameter measured: Peptide exchange (MHC class I binding score, peptide exchange yield)

# count of solved cases: 4
Substance	Observed result
158 (KLFDVDEDGYI; listed as Homo sapiens) [compound 158]	“+++” (≥50 = +++)
307 (ALPVSLPQI; listed as Homo sapiens) [compound 307]	“+++” (≥50 = +++)
602 (YLLEQIKLIEV; listed as Homo sapiens) [compound 602]	“++++” (≥75% = ++++)
459 (ALITEVVRL; listed as Homo sapiens) [compound 459]	“++” (≥20% = ++)

// Peptide exchange (MHC class I binding score, peptide exchange yield) value for 575 (YLISQVEGHQV; listed as Homo sapiens) [compound 575] : “+++” (≥50 = +++)

Please fill in: Peptide exchange (MHC class I binding score, peptide exchange yield) reported for 192 (KMLDGASFTL; listed as Homo sapiens) [compound 192] = “+++” (≥50 = +++)

Value of measured Peptide exchange (MHC class I binding score, peptide exchange yield) for the entry 390 (ALFMKQIYL; listed as Homo sapiens) [compound 390] : “+++” (≥50 = +++)

Lab note: measured Peptide exchange (MHC class I binding score, peptide exchange yield) of 262 (LLWGDLIWL; listed as Homo sapiens) [compound 262] was “+++” (≥50 = +++)

So for 62 (VLLDVSAGQLLM; listed as Homo sapiens) [compound 62] , the logged Peptide exchange (MHC class I binding score, peptide exchange yield) turned out to be “++++” (≥75% = ++++)

Please fill in: Peptide exchange (MHC class I binding score, peptide exchange yield) reported for 163 (ALDEMGDLLQL; listed as Homo sapiens) [compound 163] = “+++” (≥50 = +++)
